Entries and their IC50
- System: MOLM-13 cells
- Protocol Text: Cell viability assay (CellTiter-Glo) in MOLM-13 cells, alone or with gilteritinib
- Type: cell-based
- Experimental Setup: Homo sapiens, MOLM-13, 72 h, MOLM-13 cells, with gilteritinib 20 nM, three days, CellTiter-Glo; read-out: MOLM-13 IC50 gilteritinib

Examples with answers:
Compound	Observed Result
O=C1CCC(N2Cc3c(Nc4ccnc(Nc5ccc(N6CCC(n7cc(-c8cnc9ccccc9n8)cn7)CC6)cc5)n4)cccc3C2=O)C(=O)N1 (centres unmarked)	> 1000 nM
Cc1nn([C@H]2C[C@@H](CCCNc3ccc4c(c3)C(=O)N(C3CCC(=O)NC3=O)C4=O)C2)cc1-c1cnc2ccc(C3CCOCC3)cc2n1 (some centres unmarked)	< 10 nM

Attention now turns to another entry.
Exercise: Answer with IC50 of O=C1CCC(N2C(=O)c3ccc(NCCCCCC(=O)N4CCC(n5cc(-c6cnc7cccc(C8CCOCC8)c7n6)cn5)CC4)cc3C2=O)C(=O)N1 (centres unmarked) measured for MOLM-13 cells.
Solution: < 10 nM
